- conditions-used: buffer; pH 7.4; 200.0 µM
quantity-name: solubility kinetic

O=C(CNC(=O)c1ccccc1F)OC1CCOC1=O (centres undefined)    > 42.2 µg/mL
NS(=O)(=O)c1ccc(NC(=O)C2C3C=CC(C3)C2C(=O)O)cc1 (centres undefined)    > 50.5 µg/mL
CCC(C)c1c(O)nc(SCC(=O)N2CCCCC2)[nH]c1=O (centres undefined)    > 48.8 µg/mL
CC(=O)O.CN1CCCC(CN2c3ccccc3Sc3ccccc32)C1 (centres undefined)    > 55.6 µg/mL
Cc1ccc2cc(NC(=O)c3ccccc3)ccc2n1    > 39.3 µg/mL
COc1ccccc1NC(=O)C1CC(C)OC1=O (centres undefined)    > 37.4 µg/mL
O=C(COC(=O)C1CCCC1)Nc1ncc(Cl)cc1Cl    > 47.6 µg/mL
O=C(COc1ccccc1Cl)Nc1ccc2c(c1)C(=O)NC2=O    < 0.4 µg/mL

Task item: Entry Cn1cc(S(=O)(=O)NCc2ccc3c(c2)OCO3)c(C(F)(F)F)n1 : reported solubility kinetic = ?
Reply: > 54.5 µg/mL

Task item: Then what about the compound CN(C(=S)Nc1ccc(Oc2ccccc2)cc1)c1ccc(O)cc1 ?
Reply: > 52.6 µg/mL

Task item: Then what about the compound CC1CCN(C(=O)CCCC(=O)N2CCC(C)CC2)CC1 ?
Reply: > 44.2 µg/mL

Task item: Then what about the compound CN1C2CCC1CC(NC(=O)c1ccc([N+](=O)[O-])cc1)C2 (centres undefined) ?
Reply: > 43.4 µg/mL

Task item: Then what about the compound Cc1sc(NC(=O)C2=COCCO2)c(C(N)=O)c1C ?
Reply: > 42.3 µg/mL

Task item: Then what about the compound CCCCC(=O)N=c1sc2cc([N+](=O)[O-])ccc2n1C ?
Reply: < 0.2 µg/mL

Task item: Then what about the compound Cc1csc(NC(=O)c2ccc3nc[nH]c3c2)n1 ?
Reply: > 38.7 µg/mL

Task item: Then what about the compound COc1ccc(N2C(=O)CSC2c2ccccc2[N+](=O)[O-])cc1 (centres undefined) ?
Reply: 47.7 µg/mL
